- assayedSystem: T1, TTD of UHRF1 (residues 134–285) (human, UniProt Q96T88 134-285)
- T1 chain: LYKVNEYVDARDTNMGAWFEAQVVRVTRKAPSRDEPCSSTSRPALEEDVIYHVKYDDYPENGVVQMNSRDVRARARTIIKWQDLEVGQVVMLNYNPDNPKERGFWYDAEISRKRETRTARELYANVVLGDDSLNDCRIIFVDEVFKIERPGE
- assayProcedure: ITC; in presence of Spacer R649A (1:2)
parameter: Kd (µM)
Give a bare numeral; the unit µM is implied.

Sample ARTKQTARKSTGGKAPR (trimethyl-lysine at K9) [H3K9me3 peptide (1–17)] ; Kd observed: 2.89

Data origin: paper PMC4822050
